# System: NCI/ADR-RES
# assay.summary: NCI tumour cell line growth inhibition, 48 h
Calls of active or inactive are those of the source. Cut-off read from the data, not from the text of the source: active = GI50 up to about 1.1 µM and inactive = higher.
Use one of these outcomes when replying: 1 (yes) = active, 0 (no) = inactive

Some entries whose results are on file:
compound	class
CNc1nnc(CCCCCCCCc2nnc(NC)o2)o1	0 (no)
COc1cc(OC)nc(-n2c(N)c(C#N)c3ccc([N+](=O)[O-])cc3c2=O)n1	0 (no)
S=C(N/N=C(/c1ccccc1)c1ccccn1)N1CCCCCC1	1 (yes)
CN(CCN(C)Cc1ccc(Cl)c(Cl)c1)CCN1CCCC1	0 (no)
O=C1c2c(ccc3c2CCC3)CC12Cc1cc3c(cc1C2)CCC3	0 (no)

**Q:** Field: outcome | Entry: "CC(C)(C)c1cc(C(C)(C)C)c2c(c1O)OC(=O)CS2"
**A:** 0 (no)

**Q:** Field: outcome | Entry: "O=C1/C(=C/c2ccco2)N=C2Sc3c([nH]cnc3=O)N12"
**A:** 0 (no)

**Q:** Field: outcome | Entry: CC(NC1=CC(=O)c2cccnc2C1=O)C(O)c1ccccc1 (stereo not drawn)
**A:** 0 (no)

**Q:** Field: outcome | Entry: CCOC(=O)C1=C(C)C(C(=O)OC)/C(=C/c2cccc3cccnc23)C1=O (stereo not drawn)
**A:** 0 (no)

**Q:** Field: outcome | Entry: CC(CO)(CBr)COC(=O)c1cc(Br)c(N)c(Br)c1 (stereo not drawn)
**A:** 0 (no)

Data origin, for the record: ChEMBL document CHEMBL1201862
